- Test system: MDA-MB-231 breast
- procedureText: NCI-60 one-dose screen, 48 h
- conditionContext: 10 µM
Compounds without any hit were thinned out: in the full panel of roughly 83,000, 20% have a hit. Active and inactive are the calls of the source. The calls were made as follows: active = growth percent below 10; inactive = the rest.
Possible outcomes: True for active, False for inactive

compound: O=c1cc(-c2ccccc2)[nH]c2c1CCCC2
assignedClass: False

compound: O=C(c1ccccc1)C1CCC1
assignedClass: False

compound: Cc1ccc(S(=O)(=O)O)c(C)c1
assignedClass: False

compound: CC(=O)Cc1ccc(-c2ccccc2)cc1
assignedClass: False

compound: CCOC(=O)C(CCC(C)C)C(=O)OCC
assignedClass: False

compound: COC(=O)Nc1nc2ccc(C(=O)c3cccs3)cc2[nH]1
assignedClass: False

compound: CC1SC(N)=NC1=O (centres undefined)
assignedClass: False

compound: COc1cc2nc3cc([N+](=O)[O-])ccc3c(Cl)c2cc1OC
assignedClass: False

compound: CC(=O)OCC1=CC2OC(=O)C3=COC(OC4OC(CO)C(O)C(O)C4O)C1C32 (centres undefined)
assignedClass: False

compound: CCOc1ccc(I)cc1
assignedClass: False

compound: O=C(O)c1ccnc(Br)c1
assignedClass: False

compound: OCc1cccc2ccccc12
assignedClass: False

compound: C[C@]12CC[C@@H]3c4ccc(OCC(=O)O)cc4CC[C@H]3[C@@H]1CCC2=O
assignedClass: False

compound: O=C(O)CCCC(=O)O
assignedClass: False

compound: C#C[C@H]1CCCCCC1O (some centres undefined)
assignedClass: False

compound: CCOc1ccccc1/C=N/Nc1nc2ccccc2o1
assignedClass: False

compound: CCOC(=O)Nc1cc2c(c(N)n1)N=C(c1ccccc1)CO2
assignedClass: False

compound: c1ccc(CN2COc3c(ccc4c3OCN(Cc3ccccc3)C4)C2)cc1
assignedClass: True

compound: CCOc1ccc(Br)cc1/C=N\N=C\c1cc(Br)ccc1OCC
assignedClass: False

compound: CC1Cc2ccccc2O1 (centres undefined)
assignedClass: False

compound: CC(C)=NNc1ccc([N+](=O)[O-])cc1[N+](=O)[O-]
assignedClass: False

compound: CN(C)c1nc2c([nH]1)c(=O)n(C)c(=O)n2C
assignedClass: False

compound: C[N+](C)(C)C(=O)c1ccccc1
assignedClass: False

compound: NNc1ccccc1C(=O)O
assignedClass: False

compound: COc1ccccc1N1CCN(C(=S)Nc2ccccc2)CC1
assignedClass: False

compound: CNc1nc(NC)c2cn[nH]c2n1
assignedClass: False

compound: Nc1ncnc2c1nc(N)n2C1OC(CO)C(O)C1O (centres undefined)
assignedClass: True

compound: Cc1cc(C)c(N)c(S(=O)(=O)O)c1
assignedClass: False

compound: CCCCCCCCO
assignedClass: False

compound: Cc1nc2ccccc2c(C(=O)O)c1O
assignedClass: False

compound: Cc1ccccc1C1N=C2Oc3ccccc3C=C2C(=O)N1 (centres undefined)
assignedClass: False

compound: CC(C)CCCC(=O)O
assignedClass: False

compound: Nc1ccc(N)c([N+](=O)[O-])c1
assignedClass: False

compound: COc1cc(CCN=Cc2ccccc2O)c([N+](=O)[O-])cc1OC
assignedClass: False

compound: Cc1ccc(Cl)cc1NC(=O)N(C)CCO
assignedClass: False

compound: CCCCC1(CC)COC(CCC)OC1 (centres undefined)
assignedClass: False

compound: CC1(C)OC(=O)C(c2ccsc2)C(=O)O1
assignedClass: False

compound: CCCCC(CC)COC(C)=O (centres undefined)
assignedClass: False

compound: CC(=O)OCC1OC(OC2=C(CC=C(C)C)C(=O)c3ccccc3C2=O)C(OC(C)=O)C(OC(C)=O)C1OC(C)=O (centres undefined)
assignedClass: True

compound: C=CCCCCCCCCCOC(C)=O
assignedClass: False

compound: S=c1nn[nH]c2ccccc12
assignedClass: False

compound: O=C(Nc1ccccc1C(=O)NCC1CC1)c1cccs1
assignedClass: False

compound: CCOC(=O)C/C(C)=N\O
assignedClass: False

compound: CCO/C=C1\SC(=S)N(c2cccc(C)c2)C1=O
assignedClass: False

compound: O=[N+]([O-])c1ccc(O)c(S(=O)(=O)O)c1
assignedClass: False

compound: O=C(NCO)c1ccccc1
assignedClass: False

compound: C=CC[N+](C)(C)C
assignedClass: False

compound: CCOC(=O)c1[nH]c(C)c(C(=O)O)c1C
assignedClass: False

compound: COc1cc(C(=O)N/N=C/c2cccc([N+](=O)[O-])c2)cc(OC)c1OC
assignedClass: False
